Would you kindly list log10(Ki) for each of these molecules?
# Target Or System: Cannabinoid receptor 2 (Mus musculus, UniProt P47936)
# Sequence (P47936 whole entry): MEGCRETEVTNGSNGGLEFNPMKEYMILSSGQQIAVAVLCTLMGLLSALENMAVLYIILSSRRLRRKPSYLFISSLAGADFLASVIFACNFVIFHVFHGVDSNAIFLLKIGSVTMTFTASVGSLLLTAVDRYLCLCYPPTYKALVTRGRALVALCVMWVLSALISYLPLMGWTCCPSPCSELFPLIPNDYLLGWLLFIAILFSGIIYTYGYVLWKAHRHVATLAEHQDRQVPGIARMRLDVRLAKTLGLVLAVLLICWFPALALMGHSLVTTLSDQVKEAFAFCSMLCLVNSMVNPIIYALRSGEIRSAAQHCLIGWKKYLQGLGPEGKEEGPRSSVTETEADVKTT
Note the log scale: values are log10 of Ki expressed in nM.

Entry CC(C)(CCCCCCN=C=S)c1cc(O)c2c(c1)OC(C)(C)[C@@H]1CC[C@@H](CO)C[C@@H]21 has what log10(Ki)?
-0.10

Proceed to CC(C)(CCCCCCN=[N+]=[N-])c1cc(O)c2c(c1)OC(C)(C)[C@@H]1CC[C@@H](CO)C[C@@H]21
-0.10

Would you kindly repeat that for CC1(C)Oc2cc(C3(CCCCCCCN=C=S)CCCC3)cc(O)c2[C@@H]2C[C@H](CN=C=S)CC[C@H]21 ?
1.16

And for CC1(C)Oc2cc(C3(CCCCCCCC#N)CCCC3)cc(O)c2[C@@H]2C[C@H](CN=C=S)CC[C@H]21 ?
0.28

Another: CC1(C)Oc2cc(C3(CCCCCCCC#N)CCCC3)cc(O)c2[C@@H]2C[C@H](CO)CC[C@H]21
-0.05

Proceed to CC1(C)Oc2cc(C3(CCCCCCC#N)CCCC3)cc(O)c2[C@@H]2C[C@H](CO)CC[C@H]21
0.00

* * *

# Target Or System: Cannabinoid receptor 2 (Homo sapiens, UniProt P34972)
# Sequence (P34972 whole entry): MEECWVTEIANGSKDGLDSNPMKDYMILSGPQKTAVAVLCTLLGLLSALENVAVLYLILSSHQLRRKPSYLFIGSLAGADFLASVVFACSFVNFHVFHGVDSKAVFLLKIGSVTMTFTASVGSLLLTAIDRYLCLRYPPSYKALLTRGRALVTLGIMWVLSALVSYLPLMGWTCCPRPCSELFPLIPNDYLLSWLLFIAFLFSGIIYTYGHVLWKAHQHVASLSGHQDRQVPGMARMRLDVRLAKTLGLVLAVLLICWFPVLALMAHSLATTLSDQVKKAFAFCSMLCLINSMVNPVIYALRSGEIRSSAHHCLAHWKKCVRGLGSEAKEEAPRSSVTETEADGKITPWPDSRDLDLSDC
# Assay: Displacement of [3H]CP55940 from CB2 (unknown origin) assessed as reduction in maximum binding capacity at 4 nM incubated for 1 hr by TopCount scintillation counting method relative to control
# Details: filed as agonist
// boundary case: Bmax equal to 60% maps to -1; strictly smaller maps to 1

Would you kindly verify if Bmax of CC1(C)Oc2cc(C3(CCCCCCN=[N+]=[N-])CCCC3)cc(O)c2[C@@H]2C[C@H](CO)CC[C@H]21 is strictly less than 60%?
-1

Another compound to look at: CC1(C)Oc2cc(C3(CCCCCCCC#N)CCCC3)cc(O)c2[C@@H]2C[C@H](CO)CC[C@H]21
1

Now the same for CC1(C)Oc2cc(C3(CCCCCCC#N)CCCC3)cc(O)c2[C@@H]2C[C@H](CO)CC[C@H]21
1

Field entry: CC(C)(CCCCCCN=[N+]=[N-])c1cc(O)c2c(c1)OC(C)(C)[C@@H]1CC[C@@H](CO)C[C@@H]21
-1

Also check CC(C)(CCCCCCN=C=S)c1cc(O)c2c(c1)OC(C)(C)[C@@H]1CC[C@@H](CO)C[C@@H]21
-1

* * *

Observed Ki for Cannabinoid receptor 2 (Mus musculus, UniProt P47936), reported per entry below.
// units = nM; emit number, no label

Item under review: CC1(C)Oc2cc(C3(CCCCCCN=C=S)CCCC3)cc(O)c2[C@@H]2C[C@H](CO)CC[C@H]21 . Reported Ki?
0.9

Lookup CC1(C)Oc2cc(C3(CCCCCCCC#N)CCCC3)cc(O)c2[C@@H]2C[C@H](CN=[N+]=[N-])CC[C@H]21
1.4

Similarly, CC1(C)Oc2cc(C3(CCCCCCN=[N+]=[N-])CCCC3)cc(O)c2[C@@H]2C[C@H](CO)CC[C@H]21 ?
0.8

Item: CC1(C)Oc2cc(C3(CCCCCCCN=[N+]=[N-])CCCC3)cc(O)c2[C@@H]2C[C@H](CO)CC[C@H]21
1.6

And then CC(C)(CCCCCCC#N)c1cc(O)c2c(c1)OC(C)(C)[C@@H]1CC[C@@H](CO)C[C@@H]21 , what is it?
0.8

What do you have for CC1(C)Oc2cc(C3(CCCCCCCN=C=S)CCCC3)cc(O)c2[C@@H]2C[C@H](CO)CC[C@H]21 ?
1.1

Also, CC1(C)Oc2cc(C3(CCCCCCCN=[N+]=[N-])CCCC3)cc(O)c2[C@@H]2C[C@H](CN=[N+]=[N-])CC[C@H]21 please.
1.2

* * *

# Target Or System: Cannabinoid receptor 1 (Homo sapiens)
# Sequence (P21554 whole entry): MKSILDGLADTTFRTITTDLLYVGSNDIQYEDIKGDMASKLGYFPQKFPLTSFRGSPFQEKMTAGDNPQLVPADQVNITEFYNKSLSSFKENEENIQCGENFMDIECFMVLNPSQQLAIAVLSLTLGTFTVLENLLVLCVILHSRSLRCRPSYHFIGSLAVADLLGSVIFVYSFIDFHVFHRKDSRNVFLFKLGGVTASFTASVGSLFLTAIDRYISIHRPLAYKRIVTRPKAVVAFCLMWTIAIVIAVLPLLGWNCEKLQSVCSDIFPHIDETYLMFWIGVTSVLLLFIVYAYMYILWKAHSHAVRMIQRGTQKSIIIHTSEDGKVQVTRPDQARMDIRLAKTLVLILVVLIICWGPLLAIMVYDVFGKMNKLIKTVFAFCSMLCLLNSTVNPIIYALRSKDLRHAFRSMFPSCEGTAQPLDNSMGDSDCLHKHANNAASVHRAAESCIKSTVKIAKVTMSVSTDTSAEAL
# Assay: Agonist activity at 3xHA tagged human CB1 receptor expressed in CHO-K1 cells assessed as reduction in forskolin-stimulated cAMP accumulation incubated for 30 mins by cAMP assay
Attribute Measured: pEC50
Scale: pEC50 equals -log10([C]), with [C] in mol/L.

Could you share what pEC50 was measured for CC(C)(CCCCCCN=[N+]=[N-])c1cc(O)c2c(c1)OC(C)(C)[C@@H]1CC[C@@H](CO)C[C@@H]21 , tested on Cannabinoid receptor 1 (Homo sapiens)?
10.01

Next entry: CC1(C)Oc2cc(C3(CCCCCCN=C=S)CCCC3)cc(O)c2[C@@H]2C[C@H](CO)CC[C@H]21
9.28

Same thing, different compound: CC1(C)Oc2cc(C3(CCCCCCCN=C=S)CCCC3)cc(O)c2[C@@H]2C[C@H](CO)CC[C@H]21
9.37

Quick one: CC1(C)Oc2cc(C3(CCCCCCC#N)CCCC3)cc(O)c2[C@@H]2C[C@H](CO)CC[C@H]21
9.51

Do the same for CC(C)(CCCCCCN=C=S)c1cc(O)c2c(c1)OC(C)(C)[C@@H]1CC[C@@H](CO)C[C@@H]21 please
8.24

Would you kindly repeat that for CC(C)(CCCCCCC#N)c1cc(O)c2c(c1)OC(C)(C)[C@@H]1CC[C@@H](CO)C[C@@H]21 ?
10.06

* * *

For each of the molecules below, state its Bmax.
# Target Or System: UniProtKB P20272
# Sequence (P20272 whole entry): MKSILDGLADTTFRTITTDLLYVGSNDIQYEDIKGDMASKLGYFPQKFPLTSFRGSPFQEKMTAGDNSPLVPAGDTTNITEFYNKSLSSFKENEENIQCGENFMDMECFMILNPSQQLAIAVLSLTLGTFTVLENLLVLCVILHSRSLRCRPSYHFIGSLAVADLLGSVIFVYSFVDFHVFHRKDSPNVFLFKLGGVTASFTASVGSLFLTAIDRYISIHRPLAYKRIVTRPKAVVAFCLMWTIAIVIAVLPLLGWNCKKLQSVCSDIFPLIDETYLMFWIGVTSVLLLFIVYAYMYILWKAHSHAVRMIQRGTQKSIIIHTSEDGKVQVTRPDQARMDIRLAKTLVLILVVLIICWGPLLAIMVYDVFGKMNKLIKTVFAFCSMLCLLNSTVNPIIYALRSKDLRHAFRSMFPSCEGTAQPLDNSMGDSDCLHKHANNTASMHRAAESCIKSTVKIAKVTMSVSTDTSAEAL
# Assay: Displacement of [3H]CP55940 from rat brain membrane CB1 assessed as reduction in maximum binding capacity at 4 nM incubated for 1 hr by TopCount scintillation counting method relative to control
# Type: cell membranes
# Details: filed as agonist
Number only, in %; omit the unit.

So what's the measured Bmax for this one? CC(C)(CCCCCCN=[N+]=[N-])c1cc(O)c2c(c1)OC(C)(C)[C@@H]1CC[C@@H](CO)C[C@@H]21
75

Entry to check: CC1(C)Oc2cc(C3(CCCCCCCC#N)CCCC3)cc(O)c2[C@@H]2C[C@H](CO)CC[C@H]21
60

Also CC1(C)Oc2cc(C3(CCCCCCCN=[N+]=[N-])CCCC3)cc(O)c2[C@@H]2C[C@H](CO)CC[C@H]21 , if possible.
48

CC(C)(CCCCCCC#N)c1cc(O)c2c(c1)OC(C)(C)[C@@H]1CC[C@@H](CO)C[C@@H]21 ?
76

Input CC(C)(CCCCCCN=C=S)c1cc(O)c2c(c1)OC(C)(C)[C@@H]1CC[C@@H](CO)C[C@@H]21
65

Repeat for the following molecule: CC1(C)Oc2cc(C3(CCCCCCC#N)CCCC3)cc(O)c2[C@@H]2C[C@H](CO)CC[C@H]21
68

Now this one: CC1(C)Oc2cc(C3(CCCCCCN=[N+]=[N-])CCCC3)cc(O)c2[C@@H]2C[C@H](CO)CC[C@H]21
87

Now give it for CC1(C)Oc2cc(C3(CCCCCCCN=C=S)CCCC3)cc(O)c2[C@@H]2C[C@H](CO)CC[C@H]21 too.
51

* * *

# Target Or System: Cannabinoid receptor 2 (Homo sapiens, UniProt P34972)
# Assay: Agonist activity at 3xHA tagged human CB2 receptor expressed in CHO-K1 cells assessed as reduction in forskolin-stimulated cAMP accumulation by measuring maximal efficacy incubated for 30 mins by cAMP assay relative to CP-55940
# Format: functional, cell-based
# Details: filed as agonist
Attribute Measured: Emax (%)
Give the value, in units of %, as a plain number.

Which Emax reading was recorded for the molecule CC1(C)Oc2cc(C3(CCCCCCC#N)CCCC3)cc(O)c2[C@@H]2C[C@H](CO)CC[C@H]21 ?
61

Try the molecule CC1(C)Oc2cc(C3(CCCCCCCN=C=S)CCCC3)cc(O)c2[C@@H]2C[C@H](CO)CC[C@H]21
74

What about this molecule? CC(C)(CCCCCCC#N)c1cc(O)c2c(c1)OC(C)(C)[C@@H]1CC[C@@H](CO)C[C@@H]21
70

Ok, now CC(C)(CCCCCCN=C=S)c1cc(O)c2c(c1)OC(C)(C)[C@@H]1CC[C@@H](CO)C[C@@H]21
107

Also check CC1(C)Oc2cc(C3(CCCCCCN=C=S)CCCC3)cc(O)c2[C@@H]2C[C@H](CO)CC[C@H]21
57

For CC(C)(CCCCCCN=[N+]=[N-])c1cc(O)c2c(c1)OC(C)(C)[C@@H]1CC[C@@H](CO)C[C@@H]21 then?
72

* * *

# Target Or System: Cannabinoid receptor 2 (Homo sapiens, UniProt P34972)
# Assay: Displacement of [3H]CP55940 from CB2 (unknown origin) assessed as reduction in maximum binding capacity at 4 nM incubated for 1 hr by TopCount scintillation counting method relative to control
Label Criterion met when Bmax is at or above 20%; otherwise label Criterion not met.

Exam item: decide whether the reported Bmax for CC1(C)Oc2cc(C3(CCCCCCCN=C=S)CCCC3)cc(O)c2[C@@H]2C[C@H](CN=C=S)CC[C@H]21 is at least 20%.
Criterion not met

Similarly, CC1(C)Oc2cc(C3(CCCCCCCN=[N+]=[N-])CCCC3)cc(O)c2[C@@H]2C[C@H](CN=[N+]=[N-])CC[C@H]21 ?
Criterion met

Same thing, different compound: CC1(C)Oc2cc(C3(CCCCCCCN=C=S)CCCC3)cc(O)c2[C@@H]2C[C@H](CO)CC[C@H]21
Criterion not met

Lookup CC1(C)Oc2cc(C3(CCCCCCCN=[N+]=[N-])CCCC3)cc(O)c2[C@@H]2C[C@H](CO)CC[C@H]21
Criterion met

Next compound: CC1(C)Oc2cc(C3(CCCCCCN=C=S)CCCC3)cc(O)c2[C@@H]2C[C@H](CO)CC[C@H]21
Criterion met
